Molecular target: type B monoamine oxidase (MAO-B) [B型モノアミン酸化酵素(MAO−B)] (Rattus norvegicus)
Sequence (P19643 1-520): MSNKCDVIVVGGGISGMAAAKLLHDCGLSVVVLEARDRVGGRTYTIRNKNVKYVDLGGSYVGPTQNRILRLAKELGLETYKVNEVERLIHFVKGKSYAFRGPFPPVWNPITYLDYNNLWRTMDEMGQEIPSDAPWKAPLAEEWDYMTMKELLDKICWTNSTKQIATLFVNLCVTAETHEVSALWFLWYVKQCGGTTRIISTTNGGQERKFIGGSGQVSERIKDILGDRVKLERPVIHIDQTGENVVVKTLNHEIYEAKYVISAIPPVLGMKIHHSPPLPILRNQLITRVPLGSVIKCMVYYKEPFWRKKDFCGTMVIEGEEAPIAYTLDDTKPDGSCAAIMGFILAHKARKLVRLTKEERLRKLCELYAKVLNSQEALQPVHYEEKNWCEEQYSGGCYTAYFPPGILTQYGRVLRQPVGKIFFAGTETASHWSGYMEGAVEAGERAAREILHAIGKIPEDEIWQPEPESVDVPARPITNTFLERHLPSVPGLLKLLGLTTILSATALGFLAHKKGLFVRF
Test: biochemical
quantity-measured: pIC50
To interpret pIC50, take it as minus log10 of a concentration measured in moles per litre.

May I ask what pIC50 has been recorded for CCCN1CCCCC12CCc1cc(OCc3ccsc3)ccc1C2 (stereo not shown) [実施例9−45, 塩酸塩] ?
7.18

These data points were gathered from patent JPH07291935A.
